Some compounds, each annotated with its measured pIC50.
targetEntity: hSTING-WT (Homo sapiens (Human), UniProt Q86WV6, H232R)
Sequence (Q86WV6 140-379 H232R): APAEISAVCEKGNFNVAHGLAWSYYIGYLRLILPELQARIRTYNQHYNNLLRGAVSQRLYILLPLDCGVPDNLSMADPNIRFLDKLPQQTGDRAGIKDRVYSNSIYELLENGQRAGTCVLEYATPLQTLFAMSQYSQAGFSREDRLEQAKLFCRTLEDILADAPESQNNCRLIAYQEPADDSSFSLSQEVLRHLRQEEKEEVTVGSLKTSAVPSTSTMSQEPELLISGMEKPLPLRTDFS
methodDescription: Radiometric filtration binding competition assay, hSTING-WT
pIC50: −log10 of the molar value.

Recorded results for 5 compounds are shown here.
>  <smilesRepresentation>
COc1c(Cl)ccc2c(=O)c3ccc(NC(C)C)cc3n(CC(=O)O)c12

>  <pIC50>
4.00 to 4.70

$$$$
>  <smilesRepresentation>
CSc1ccc2c(=O)c3ccc(Cl)c(Cl)c3n(CC(=O)O)c2c1

>  <pIC50>
3.52 to 4.00

$$$$
>  <smilesRepresentation>
O=C(O)Cn1c2cc(Nc3ccccc3)ccc2c(=O)c2ccc(Cl)c(Cl)c21

>  <pIC50>
> 4.70

$$$$
>  <smilesRepresentation>
C[C@@H](C(=O)O)n1c2ccccc2c(=O)c2ccc(Cl)c(Cl)c21

>  <pIC50>
< 3.52

$$$$
>  <smilesRepresentation>
COc1c(Cl)ccc2c(=O)c3ccc(Nc4ccc(O)cc4)cc3n(CC(=O)O)c12

>  <pIC50>
> 4.70

$$$$

Query: Item under review: CC(C)c1ccc2c(=O)c3ccc(Cl)c(Br)c3n(CC(=O)O)c2c1 . Reported pIC50?
Result: 4.00 to 4.70

Query: Queued: COc1c(Cl)ccc2c(=O)c3ccc(-c4ccncc4)cc3n(CC(=O)O)c12
Result: 4.00 to 4.70

Query: And what about the compound CC(C)(C)CNc1ccc2c(=O)c3ccc(Cl)c(Cl)c3n(CC(=O)O)c2c1 ?
Result: 4.00 to 4.70
